- Tested on: Mus musculus
- Assay comment: Neurotoxicity in Kunming mouse assessed as minimum motor impairment at 300 mg/kg, ip after 0.5 hrs by rotarod test
- Type: toxicity, organism-based
- Design: dose 300 mg/kg, route intraperitoneal
- Measurement conditions: in vivo
Quantity kind: Activity

Worked cases, answers included:
COc1cccc(C2CC23NC(=O)N(C)C3=O)c1OC (stereo unspecified); Toxic
CN1C(=O)NC2(CC2c2ccc(F)cc2)C1=O (stereo unspecified); Non-toxic
CC(C)C1CC12NC(=O)N(C)C2=O (stereo unspecified); Non-toxic
Cc1ccc(C2CC23NC(=O)N(C)C3=O)cc1 (stereo unspecified); Toxic
COc1ccc(C2CC23NC(=O)N(C)C3=O)cc1 (stereo unspecified); Non-toxic

So what does the record say about Activity for CN1C(=O)NC2(CC2c2ccccc2)C1=O (stereo unspecified) ?
Toxic
